Test system: IGR37 cells (parental)
Assay: Kinase inhibitor library screening, PrestoBlue cell viability, 1 or 10 μM, 72 h
Conditions: IGR37 Parental; 1μΜ; 72 h; in %
Doc: threshold 100 (exclusive). Items with cell viability, IGR37 Parental, 1μΜ beneath it return true (1); others return false (0).

Prompt line: Input "CN1CCN(c2ccc3nc(-c4c(N)c5c(F)cccc5[nH]c4=O)[nH]c3c2)CC1" ; condition: cell viability, IGR37 Parental, 1μΜ strictly below 100. Does it hold?
Response line: true (1)

Prompt line: Input "CN(c1ncccc1CNc1nc(Nc2ccc3c(c2)CC(=O)N3)ncc1C(F)(F)F)S(C)(=O)=O" ; condition: cell viability, IGR37 Parental, 1μΜ strictly below 100. Does it hold?
Response line: false (0)

Prompt line: Input "CN1CCN(c2cccc(Nc3nc4c(-c5ccc(S(C)(=O)=O)cc5)cccn4n3)c2)CC1" ; condition: cell viability, IGR37 Parental, 1μΜ strictly below 100. Does it hold?
Response line: false (0)

Prompt line: Input "N#C/C(=C\c1ccc(O)c(O)c1)C(=O)NCc1ccccc1" ; condition: cell viability, IGR37 Parental, 1μΜ strictly below 100. Does it hold?
Response line: false (0)

Prompt line: Input "O=C(NOCC1CC1)c1ccc(F)c(F)c1Nc1ccc(I)cc1Cl" ; condition: cell viability, IGR37 Parental, 1μΜ strictly below 100. Does it hold?
Response line: true (1)

Prompt line: Input "CCOc1cc2ncc(C#N)c(Nc3ccc(OCc4ccccn4)c(Cl)c3)c2cc1NC(=O)/C=C/CN(C)C" ; condition: cell viability, IGR37 Parental, 1μΜ strictly below 100. Does it hold?
Response line: true (1)
